This collection of values is drawn from PubChem BioAssay (NCI).

# Test system: OVCAR-8 ovarian
# EXPERIMENT NOTES: NCI tumour cell line growth inhibition, 48 h
PARAMETER: TGI

Worked set:
COMPOUND | TGI
O=C(Nc1ccc(Cl)cc1)NS(=O)(=O)c1coc2cc(F)ccc2c1=O | > 100 µM
O=c1[nH]c2cc(Cl)ccc2nc1/C(=N\O)C(O)c1cccc([N+](=O)[O-])c1 (stereo not given) | > 100 µM
Cc1ccc(Nc2n[nH]c(=S)s2)cc1C | > 100 µM
CS(=O)(=O)c1nc(-c2cc3c(c(S(C)(=O)=O)n2)CCC3)cc2c1CCCCC2 | > 100 µM
COc1cc(OC(=O)c2ccccc2)cc2c1C(=O)C=CC2=O | 63.3 µM
CN1CCc2[nH]c3ccccc3c2C1 | > 100 µM
CC(=O)NC1C(OCc2ccccc2)OC(CO)C(O)C1OC(C)C(=O)NC(C(=O)N[C@@H](CCC(=O)NCCNCCNc1c2ccccc2nc2cccc([N+](=O)[O-])c12)C(N)=O)C(C)C (stereo not given in full) | > 100 µM
COc1ccc2c3c1O[C@]1(C)C34CCN(C)C(C2)C42C=C[C@@]1(OC)c1c(O)ccc(O)c12 | > 100 µM
CC(C)[C@H](N)C(=O)N1CCC[C@H]1B(O)O | > 100 µM

Now, please, on to the next compound.
input: Returns the measured TGI for the input compound. Input: CCN(CC)CCCCNc1c2ccccc2[n+](C)c2c1[nH]c1ccccc12
output: 19.8 µM

----------
# Tested on: HOP-92 NSCLC
# EXPERIMENT NOTES: NCI tumour cell line growth inhibition, 48 h
For each of the compounds below, state its TGI.
One number for each entry, in µM.

Worked set:
COMPOUND | TGI, µM
O=[N+]([O-])/C(C(Cl)=C(Cl)Cl)=C(\N1CCOCC1)n1nnc2ccccc21 | 37.6
CCCCCCCCCCCCCCCCCCNC(=O)C(N)Cc1ccc(OCc2ccccc2)cn1 (stereo unspecified) | 41.3
Clc1ccc(C2SCc3nc4ccccc4n32)c(Cl)c1 (stereo unspecified) | 11
O=C(CCCCCCCCC(=O)N/N=C\c1ccccc1O)N/N=C\c1ccccc1O | 0.889

input: Returns the measured TGI for the input compound. Input: CC/C=C1/C(=O)C=C[C@@H]1C/C=C\CCCC(=O)OC
output: 25.1

----------
# System: K-562 leukemia
# EXPERIMENT NOTES: NCI tumour cell line growth inhibition, 48 h; in the data active = GI50 below about 0.43 µM; inactive = the rest
Could you please pick one outcome from this set? active, inactive

Example results:
COMPOUND | LABEL
COc1ccc(C(=O)c2cc(OC)c(OC)c(OC)c2)cc1OC(=O)CCl | active
CN[C@@H](C)C(=O)N[C@H](C(=O)N1CCC[C@H]1C(=O)Nc1snnc1-c1ccccc1)C1CCCCC1 | inactive
O=C1Nc2ccccc2/C1=C/C(=O)c1coc2c1C(=O)c1ccccc1C2=O | inactive

input: What did the test return for FC(F)(F)c1ccc(Nc2nc(-c3c(C(F)(F)F)nc4ccccn34)cs2)cc1 ?
output: active

input: What did the test return for CC1CCC(NC(=O)N(CCCl)N=O)CC1 (centres undefined) ?
output: active

input: What did the test return for COc1cc2c(c(OC)c1OC)-c1ccc(SC)c(=O)cc1C(CO)C2 (centres undefined) ?
output: active

input: What did the test return for COc1ccc(-c2c[nH]c(C(=O)O)c2-c2cc(OC)c(OC)c(OC)c2)cc1 ?
output: inactive

input: What did the test return for COc1ccc(/C(COc2ccc3c(=O)cc(-c4ccccc4)oc3c2)=N\O)cc1 ?
output: inactive
